tested on: A498; assay: Growth inhibition of human A498 cells after 48 hrs by sulforhodamine B assay; type: functional; details: A498, 48 h
measured_quantity: GI50

1) CC(C)=CCC/C(C)=C/CC/C(C)=C/CC[C@]1(C)CCc2c3c(cc(C)c2O1)OCN(CCCCCCO)C3 :: 4.88 µM
2) CC(C)=CCC/C(C)=C/CC/C(C)=C/CC[C@]1(C)CCc2c3c(cc(C)c2O1)OCN(CCc1ccc(O)cc1)C3 :: 6.21 µM
3) CC(C)=CCC/C(C)=C/CC/C(C)=C/CC[C@]1(C)CCc2c3c(cc(C)c2O1)OCN(CCCO)C3 :: 1.46 µM
4) CC(C)=CCC/C(C)=C/CC/C(C)=C/CC[C@]1(C)CCc2c3c(c(C)c(C)c2O1)OCN(CCCCO)C3 :: > 10 µM
5) CC(C)=CCC/C(C)=C/CC/C(C)=C/CC[C@]1(C)CCc2c3c(cc(C)c2O1)OCN(CCCCCCCCO)C3 :: 4.71 µM

Moving on to the next molecule.
IN: Look at this molecule and give its reported GI50. CC(C)=CCC/C(C)=C/CC/C(C)=C/CC[C@]1(C)CCc2c3c(cc(C)c2O1)OCN(C1CCN(Cc2ccccc2)CC1)C3
OUT: 1.31 µM

----------
Reported growth at 10 µM values for the following compounds.
test system: SW-620; test: Growth inhibition of human SW620 cells assessed as cell growth at 10 uM after 48 hrs by sulforhodamine B assay; assay type: functional; conditions: SW-620, 48 h, read-out: Activity
Enter the number, and then the unit.

Worked examples, 3 compounds total:
1) CC(C)=CCC/C(C)=C/CC/C(C)=C/CC[C@]1(C)CCc2c3c(c(C)c(C)c2O1)OCN(CCCCCCO)C3 :: -29.4%
2) CC(C)=CCC/C(C)=C/CC/C(C)=C/CC[C@]1(C)CCc2c3c(cc(C)c2O1)OCN(CCc1ccc(O)cc1)C3 :: -95.2%
3) CC(C)=CCC/C(C)=C/CC/C(C)=C/CC[C@]1(C)CCc2c3c(c(C)c(C)c2O1)OCN(CCCCCCCCCCCCO)C3 :: 109%

Moving on to the next compound.
IN: Look at this compound and give its reported growth at 10 µM. CC(C)=CCC/C(C)=C/CC/C(C)=C/CC[C@]1(C)CCc2c3c(c(C)c(C)c2O1)OCN(CCCCCCCCCCO)C3
OUT: 105%

----------
system: UO-31; assay: Growth inhibition of human UO31 cells assessed as cell growth at 10 uM after 48 hrs by sulforhodamine B assay; type: functional; details: UO-31, 48 h, read-out: Activity
Reported growth at 10 µM values for the following compounds.
Number in %, nothing else.

1. COc1ccc(CCN2COc3cc(C)c4c(c3C2)CC[C@@](C)(CC/C=C(\C)CC/C=C(\C)CCC=C(C)C)O4)cc1OC :: 51.2
2. COc1ccc(CCNCc2c(O)c(C)c(C)c3c2CC[C@@](C)(CC/C=C(\C)CC/C=C(\C)CCC=C(C)C)O3)cc1OC :: 69.5
3. CC(C)=CCC/C(C)=C/CC/C(C)=C/CC[C@]1(C)CCc2c3c(cc(C)c2O1)OCN(CCCCCCCCO)C3 :: -91.5

IN: Look at this compound and give its reported growth at 10 µM. CC(C)=CCC/C(C)=C/CC/C(C)=C/CC[C@]1(C)CCc2c3c(c(C)c(C)c2O1)OCN(CCCCCCCCO)C3
OUT: 27.9

IN: Look at this compound and give its reported growth at 10 µM. CC(C)=CCC/C(C)=C/CC/C(C)=C/CC[C@]1(C)CCc2c3c(c(C)c(C)c2O1)OCN(CCc1ccc(O)cc1)C3
OUT: 71.9

IN: Look at this compound and give its reported growth at 10 µM. CC(C)=CCC/C(C)=C/CC/C(C)=C/CC[C@]1(C)CCc2c(CNCCc3ccc(O)cc3)c(O)c(C)c(C)c2O1
OUT: 70.8

IN: Look at this compound and give its reported growth at 10 µM. CC(C)=CCC/C(C)=C/CC/C(C)=C/CC[C@]1(C)CCc2c3c(cc(C)c2O1)OCN(CCCCCCCCCCO)C3
OUT: 61.9

IN: Look at this compound and give its reported growth at 10 µM. CC(C)=CCC/C(C)=C/CC/C(C)=C/CC[C@]1(C)CCc2c3c(c(C)c(C)c2O1)OCN(CCCCCCCCCCO)C3
OUT: 71.7

IN: Look at this compound and give its reported growth at 10 µM. CC(C)=CCC/C(C)=C/CC/C(C)=C/CC[C@]1(C)CCc2c3c(c(C)c(C)c2O1)OCN(CCCCO)C3
OUT: 50.7

----------
system: CCRF-CEM; assay: Growth inhibition of human CCRF-CEM cells assessed as cell growth at 10 uM after 48 hrs by sulforhodamine B assay; type: functional; conditions: read-out: Activity
Lab note - cut at 10% for growth at 10 µM: yes (1) if strictly below, no (0) if not.

1. COc1ccc(CCNCc2c(O)c(C)c(C)c3c2CC[C@@](C)(CC/C=C(\C)CC/C=C(\C)CCC=C(C)C)O3)cc1OC :: no (0)
2. CC(C)=CCC/C(C)=C/CC/C(C)=C/CC[C@]1(C)CCc2c3c(c(C)c(C)c2O1)OCN(CCCCCCCCCCO)C3 :: no (0)
3. CC(C)=CCC/C(C)=C/CC/C(C)=C/CC[C@]1(C)CCc2c3c(c(C)c(C)c2O1)OCN(CCCCCCCCCCCCO)C3 :: no (0)
4. COc1ccc(CCN2COc3cc(C)c4c(c3C2)CC[C@@](C)(CC/C=C(\C)CC/C=C(\C)CCC=C(C)C)O4)cc1OC :: yes (1)
5. CC(C)=CCC/C(C)=C/CC/C(C)=C/CC[C@]1(C)CCc2c3c(cc(C)c2O1)OCN(CCCO)C3 :: no (0)
6. CC(C)=CCC/C(C)=C/CC/C(C)=C/CC[C@]1(C)CCc2c3c(cc(C)c2O1)OCN(CCCCCCCCCCCCO)C3 :: no (0)
7. CC(C)=CCC/C(C)=C/CC/C(C)=C/CC[C@]1(C)CCc2c3c(c(C)c(C)c2O1)OCN(CCCCCCCCO)C3 :: no (0)
8. CC(C)=CCC/C(C)=C/CC/C(C)=C/CC[C@]1(C)CCc2cc(O)c(C)c(C)c2O1 :: no (0)
9. CC(C)=CCC/C(C)=C/CC/C(C)=C/CC[C@]1(C)CCc2c3c(cc(C)c2O1)OCN(CCCCCO)C3 :: no (0)
10. CC(C)=CCC/C(C)=C/CC/C(C)=C/CC[C@]1(C)CCc2c3c(cc(C)c2O1)OCN(CCCCCCCCO)C3 :: yes (1)

IN: Please indicate whether the reported growth at 10 µM of CC(C)=CCC/C(C)=C/CC/C(C)=C/CC[C@]1(C)CCc2c(CNCCc3ccc(O)cc3)c(O)c(C)c(C)c2O1 is strictly below 10%.
OUT: no (0)

IN: Please indicate whether the reported growth at 10 µM of CC(C)=CCC/C(C)=C/CC/C(C)=C/CC[C@]1(C)CCc2c3c(cc(C)c2O1)OCN(CCc1ccc(O)cc1)C3 is strictly below 10%.
OUT: yes (1)

IN: Please indicate whether the reported growth at 10 µM of CC(C)=CCC/C(C)=C/CC/C(C)=C/CC[C@]1(C)CCc2c3c(cc(C)c2O1)OCN(CCCCO)C3 is strictly below 10%.
OUT: yes (1)

----------
system: OVCAR-3; experiment: Growth inhibition of human OVCAR3 cells after 48 hrs by sulforhodamine B assay; format: functional; details: OVCAR-3, 48 h
measured_quantity: GI50 (nM)
Number in nM, nothing else.

1. CC(C)=CCC/C(C)=C/CC/C(C)=C/CC[C@]1(C)CCc2c3c(cc(C)c2O1)OCN(CCCO)C3 :: 2110
2. CC(C)=CCC/C(C)=C/CC/C(C)=C/CC[C@]1(C)CCc2c3c(cc(C)c2O1)OCN(CCCCCCO)C3 :: 702
3. CC(C)=CCC/C(C)=C/CC/C(C)=C/CC[C@]1(C)CCc2c3c(c(C)c(C)c2O1)OCN(CCCCCO)C3 :: 6710

Moving on to the next compound.
IN: Look at this compound and give its reported GI50. COc1ccc(CCN2COc3cc(C)c4c(c3C2)CC[C@@](C)(CC/C=C(\C)CC/C=C(\C)CCC=C(C)C)O4)cc1OC
OUT: 2000

----------
Reported growth at 10 µM values for the following molecules.
system: SNB-19; assay: Growth inhibition of human SNB19 cells assessed as cell growth at 10 uM after 48 hrs by sulforhodamine B assay; format: functional; settings: SNB-19, 48 h, read-out: Activity

Worked examples, 5 molecules total:
1) CC(C)=CCC/C(C)=C/CC/C(C)=C/CC[C@]1(C)CCc2c3c(cc(C)c2O1)OCN(CCCO)C3 :: 4.52%
2) CC(C)=CCC/C(C)=C/CC/C(C)=C/CC[C@]1(C)CCc2c3c(c(C)c(C)c2O1)OCN(CCCCCCO)C3 :: 18.1%
3) CC(C)=CCC/C(C)=C/CC/C(C)=C/CC[C@]1(C)CCc2c3c(c(C)c(C)c2O1)OCN(CCCCCCCCCCO)C3 :: 95.7%
4) CC(C)=CCC/C(C)=C/CC/C(C)=C/CC[C@]1(C)CCc2c3c(cc(C)c2O1)OCN(C1CCN(Cc2ccccc2)CC1)C3 :: 68.2%
5) COc1ccc(CCN2COc3cc(C)c4c(c3C2)CC[C@@](C)(CC/C=C(\C)CC/C=C(\C)CCC=C(C)C)O4)cc1OC :: 80.5%

IN: Look at this molecule and give its reported growth at 10 µM. CC(C)=CCC/C(C)=C/CC/C(C)=C/CC[C@]1(C)CCc2c3c(c(C)c(C)c2O1)OCN(CCCCCCCCCCCCO)C3
OUT: 104%

IN: Look at this molecule and give its reported growth at 10 µM. CC(C)=CCC/C(C)=C/CC/C(C)=C/CC[C@]1(C)CCc2c3c(cc(C)c2O1)OCN(CCCCCCCCCCO)C3
OUT: 98.9%

IN: Look at this molecule and give its reported growth at 10 µM. CC(C)=CCC/C(C)=C/CC/C(C)=C/CC[C@]1(C)CCc2c3c(cc(C)c2O1)OCN(CCCCO)C3
OUT: -28.3%

IN: Look at this molecule and give its reported growth at 10 µM. CC(C)=CCC/C(C)=C/CC/C(C)=C/CC[C@]1(C)CCc2c3c(cc(C)c2O1)OCN(CCCCCCCCO)C3
OUT: -74.6%

IN: Look at this molecule and give its reported growth at 10 µM. CC(C)=CCC/C(C)=C/CC/C(C)=C/CC[C@]1(C)CCc2c3c(cc(C)c2O1)OCN(CCCCCCO)C3
OUT: -6.48%

IN: Look at this molecule and give its reported growth at 10 µM. CC(C)=CCC/C(C)=C/CC/C(C)=C/CC[C@]1(C)CCc2c3c(c(C)c(C)c2O1)OCN(CCCCO)C3
OUT: 71.3%

IN: Look at this molecule and give its reported growth at 10 µM. CC(C)=CCC/C(C)=C/CC/C(C)=C/CC[C@]1(C)CCc2c3c(c(C)c(C)c2O1)OCN(CCCCCO)C3
OUT: 86.5%

IN: Look at this molecule and give its reported growth at 10 µM. CC(C)=CCC/C(C)=C/CC/C(C)=C/CC[C@]1(C)CCc2c3c(cc(C)c2O1)OCN(CCCCCO)C3
OUT: 82%

IN: Look at this molecule and give its reported growth at 10 µM. CC(C)=CCC/C(C)=C/CC/C(C)=C/CC[C@]1(C)CCc2c3c(cc(C)c2O1)OCN(CCc1ccc(O)cc1)C3
OUT: 92.1%

IN: Look at this molecule and give its reported growth at 10 µM. CC(C)=CCC/C(C)=C/CC/C(C)=C/CC[C@]1(C)CCc2c3c(cc(C)c2O1)OCN(CCCCCCCCCCCCO)C3
OUT: 92.7%

IN: Look at this molecule and give its reported growth at 10 µM. CC(C)=CCC/C(C)=C/CC/C(C)=C/CC[C@]1(C)CCc2cc(O)c(C)c(C)c2O1
OUT: 114%

IN: Look at this molecule and give its reported growth at 10 µM. CC(C)=CCC/C(C)=C/CC/C(C)=C/CC[C@]1(C)CCc2c3c(c(C)c(C)c2O1)OCN(CCCCCCCCO)C3
OUT: 73.6%

IN: Look at this molecule and give its reported growth at 10 µM. COc1ccc(CCN2COc3c(C)c(C)c4c(c3C2)CC[C@@](C)(CC/C=C(\C)CC/C=C(\C)CCC=C(C)C)O4)cc1OC
OUT: 104%

IN: Look at this molecule and give its reported growth at 10 µM. CC(C)=CCC/C(C)=C/CC/C(C)=C/CC[C@]1(C)CCc2c(CNCCc3ccc(O)cc3)c(O)c(C)c(C)c2O1
OUT: 99.8%

IN: Look at this molecule and give its reported growth at 10 µM. CC(C)=CCC/C(C)=C/CC/C(C)=C/CC[C@]1(C)CCc2c3c(c(C)c(C)c2O1)OCN(CCc1ccc(O)cc1)C3
OUT: 94.1%

IN: Look at this molecule and give its reported growth at 10 µM. COc1ccc(CCNCc2c(O)c(C)c(C)c3c2CC[C@@](C)(CC/C=C(\C)CC/C=C(\C)CCC=C(C)C)O3)cc1OC
OUT: 89.6%
